Molecular target: Recombinant human his-tagged IGF R extracellular domain protein (human) (UniProt P08069)
Experiment: SPR, Ab captured via anti-huIgG Fc, pH 7.4
measured.endpoint: koff (s⁻¹)
Reply numerically in s⁻¹, unit not repeated.

VRDN-02013 (antibody, V domains shown) VH: QVQLQESGPGLVKPSETLSLTCTVSGYSITGGYLWNWIRQPPGKGLEWIGYHSYDGTNNYKPSLKDRVTISRDTSKNQFSLKLSSVTAADTAVYYCARYGRVFFDYWGQGTLVTVSS VL: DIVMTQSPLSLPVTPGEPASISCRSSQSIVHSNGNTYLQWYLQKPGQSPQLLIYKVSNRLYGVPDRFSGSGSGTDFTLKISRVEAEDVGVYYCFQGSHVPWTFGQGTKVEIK = 5.45e-05
VRDN-02031 (antibody, V domains shown) VH: QVQLQESGPGLVKPSETLSLTCTVSGYSITGGYLWNWIRQPPGKGLEWIGYISYDGTNNYKPSLKDRVTISRDTSKNQFSLKLSSVTAADTAVYYCARYGRVFFDYWGQGTLVTVSS VL: DIVMTQSPLSLPVTPGEPASISCRSHQSIVHSNGNTYLQWYLQKPGQSPQLLIYKVSNRLYGVPDRFSGSGSGTDFTLKISRVEAEDVGVYYCFQGSHVPWTFGQGTKVEIK = 4.56e-05
VRDN-02004 (antibody, V domains shown) VH: QVQLQESGPGLVKPSETLSLTCTVSGYSHTGGYLWNWIRQPPGKGLEWIGYISYDGTNNYKPSLKDRVTISRDTSKNQFSLKLSSVTAADTAVYYCARYGRVFFDYWGQGTLVTVSS VL: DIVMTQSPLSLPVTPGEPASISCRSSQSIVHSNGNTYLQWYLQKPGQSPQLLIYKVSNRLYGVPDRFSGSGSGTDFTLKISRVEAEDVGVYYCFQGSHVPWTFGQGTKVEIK = 0.000684
VRDN-02007 (antibody, V domains shown) VH: QVQLQESGPGLVKPSETLSLTCTVSGYSITGHYLWNWIRQPPGKGLEWIGYISYDGTNNYKPSLKDRVTISRDTSKNQFSLKLSSVTAADTAVYYCARYGRVFFDYWGQGTLVTVSS VL: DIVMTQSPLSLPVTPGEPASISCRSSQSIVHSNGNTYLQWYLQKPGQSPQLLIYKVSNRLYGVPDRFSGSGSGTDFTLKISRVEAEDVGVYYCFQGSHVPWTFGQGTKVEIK = 0.000743

Problem: Please look up its koff: VRDN-02040 (antibody, V domains shown) VH: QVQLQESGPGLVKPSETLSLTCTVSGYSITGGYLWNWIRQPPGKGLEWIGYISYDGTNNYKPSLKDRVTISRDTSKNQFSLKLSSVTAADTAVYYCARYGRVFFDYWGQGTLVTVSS VL: DIVMTQSPLSLPVTPGEPASISCRSSQSIVHSNGNHYLQWYLQKPGQSPQLLIYKVSNRLYGVPDRFSGSGSGTDFTLKISRVEAEDVGVYYCFQGSHVPWTFGQGTKVEIK
Solution: 0.000104

Problem: Please look up its koff: VRDN-02071 (antibody, V domains shown) VH: QVQLQESGPGLVKPSETLSLTCTVSGYSITGGYLWNWIRQPPGKGLEWIGYIHYDGTNNYKPSLKDRVTISRDTSKNQFSLKLSSVTAADTAVYYCARHGRVFFDYWGQGTLVTVSS VL: DIVMTQSPLSLPVTPGEPASISCRSHQSIVHSNGNTYLQWYLQKPGQSPQLLIYKVSNRLYGVPDRFSGSGSGTDFTLKISRVEAEDVGVYYCFHGSHVPWTFGQGTKVEIK
Solution: 1.09e-05

Problem: Please look up its koff: VRDN-02072 (antibody, V domains shown) VH: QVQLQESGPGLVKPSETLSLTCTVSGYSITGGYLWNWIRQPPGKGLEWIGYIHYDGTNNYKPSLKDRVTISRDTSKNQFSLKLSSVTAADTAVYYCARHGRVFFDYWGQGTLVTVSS VL: DIVMTQSPLSLPVTPGEPASISCRSHQSIVHSNGNTYLQWYLQKPGQSPQLLIYKVSNRLYGVPDRFSGSGSGTDFTLKISRVEAEDVGVYYCFQGSHVHWTFGQGTKVEIK
Solution: 3.57e-05

Problem: Please look up its koff: VRDN-02064 (antibody, V domains shown) VH: QVQLQESGPGLVKPSETLSLTCTVSGYSITGGYLWNWIRQPPGKGLEWIGYISYDGTNNYKPSLKDRVTISRDTSKNQFSLKLSSVTAADTAVYYCARHGRVFFDYWGQGTLVTVSS VL: DIVMTQSPLSLPVTPGEPASISCRSSQSIVHSNGNTYLQWYLQKPGQSPQLLIYKVSNRLYGVPDRFSGSGSGTDFTLKISRVEAEDVGVYYCFHGSHVPWTFGQGTKVEIK
Solution: 2.48e-05

Problem: Please look up its koff: VRDN-02034 (antibody, V domains shown) VH: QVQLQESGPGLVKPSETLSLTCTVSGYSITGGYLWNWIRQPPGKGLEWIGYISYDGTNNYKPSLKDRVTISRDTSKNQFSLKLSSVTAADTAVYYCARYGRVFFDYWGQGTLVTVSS VL: DIVMTQSPLSLPVTPGEPASISCRSSQSHVHSNGNTYLQWYLQKPGQSPQLLIYKVSNRLYGVPDRFSGSGSGTDFTLKISRVEAEDVGVYYCFQGSHVPWTFGQGTKVEIK
Solution: 0.000105

Problem: Please look up its koff: VRDN-02006 (antibody, V domains shown) VH: QVQLQESGPGLVKPSETLSLTCTVSGYSITHGYLWNWIRQPPGKGLEWIGYISYDGTNNYKPSLKDRVTISRDTSKNQFSLKLSSVTAADTAVYYCARYGRVFFDYWGQGTLVTVSS VL: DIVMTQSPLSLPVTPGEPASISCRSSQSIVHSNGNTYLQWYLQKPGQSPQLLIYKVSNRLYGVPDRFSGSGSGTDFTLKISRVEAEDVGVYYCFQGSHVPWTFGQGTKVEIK
Solution: 8.49e-05
